Where do the numbers come from? From patent US20110318339A1.

# SYSTEM_UNDER_TEST: T1, recombinant human DLL4 (Cat# 1506-D4/CF, R&D Systems) (human, UniProt Q9NR61 27-529)
# T1 construct: Bought protein; also called hDLL4; rHuman DLL4
# METHOD_DESCRIPTION: ELISA, DLL4 coated, Fab 25 nM
Record form. Attribute: ELISA absorbance at 450 nm. Fill in for each entry.
Please respond with the number in A450 and leave the unit unwritten.

Look at this binder and give its reported ELISA absorbance at 450 nm. Fab VH5-51_IGHD5-18*01>3_IGHJ4*01 G100K/G104T G24T/S28R/G35V & V3-4_IGLJ1*01 V91L/S96P S52L (Fab, V domains shown, Fab made in E. coli: VH on CH1 with His6 and Flag tags (Plasmid A), VL on lambda CL (Plasmid E); also called H: KT TRV & L: LP S52L) VH: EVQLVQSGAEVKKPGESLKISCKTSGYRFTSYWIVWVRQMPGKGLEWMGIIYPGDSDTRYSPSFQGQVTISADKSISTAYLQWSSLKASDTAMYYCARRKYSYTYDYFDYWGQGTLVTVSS VL: QTVVTQEPSFSVSPGGTVTLTCGLSSGSVSTSYYPSWYQQTPGQAPRTLIYLTNTRSSGVPDRFSGSILGNKAALTITGAQADDESDYYCLLYMGPGISYVFGTGTKVTVL
0.58

# repeat for Fab VH5-51_IGHD5-18*01>3_IGHJ4*01 G100K/G104T G24T/S28R/G35V & V3-4_IGLJ1*01 V91L/S96P S52K (Fab, V domains shown, Fab made in E. coli: VH on CH1 with His6 and Flag tags (Plasmid A), VL on lambda CL (Plasmid E); also called H: KT TRV & L: LP S52K) VH: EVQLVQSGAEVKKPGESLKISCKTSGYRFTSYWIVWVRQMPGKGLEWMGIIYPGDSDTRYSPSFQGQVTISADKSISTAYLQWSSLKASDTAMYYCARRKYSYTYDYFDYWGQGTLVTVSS VL: QTVVTQEPSFSVSPGGTVTLTCGLSSGSVSTSYYPSWYQQTPGQAPRTLIYKTNTRSSGVPDRFSGSILGNKAALTITGAQADDESDYYCLLYMGPGISYVFGTGTKVTVL
0.79

Let us now turn to Fab VH5-51_IGHD5-18*01>3_IGHJ4*01 G100K/G104T G24T/S28R/G35V & V3-4_IGLJ1*01 V91L/S96P S52N (Fab, V domains shown, Fab made in E. coli: VH on CH1 with His6 and Flag tags (Plasmid A), VL on lambda CL (Plasmid E); also called H: KT TRV & L: LP S52N) VH: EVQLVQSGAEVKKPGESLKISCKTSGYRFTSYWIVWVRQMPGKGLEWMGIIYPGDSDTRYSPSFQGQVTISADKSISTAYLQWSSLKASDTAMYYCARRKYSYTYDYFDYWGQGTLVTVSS VL: QTVVTQEPSFSVSPGGTVTLTCGLSSGSVSTSYYPSWYQQTPGQAPRTLIYNTNTRSSGVPDRFSGSILGNKAALTITGAQADDESDYYCLLYMGPGISYVFGTGTKVTVL
0.86

What about Fab VH5-51_IGHD5-18*01>3_IGHJ4*01 & V3-4_IGLJ1*01 (Fab, V domains shown, Fab made in E. coli: VH on CH1 with His6 and Flag tags (Plasmid A), VL on lambda CL (Plasmid E); also called wildtype; parent) VH: EVQLVQSGAEVKKPGESLKISCKGSGYSFTSYWIGWVRQMPGKGLEWMGIIYPGDSDTRYSPSFQGQVTISADKSISTAYLQWSSLKASDTAMYYCARRGYSYGYDYFDYWGQGTLVTVSS VL: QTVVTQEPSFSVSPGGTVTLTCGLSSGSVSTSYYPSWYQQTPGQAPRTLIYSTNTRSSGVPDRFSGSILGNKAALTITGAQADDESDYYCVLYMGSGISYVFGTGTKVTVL ?
0.18

Would you kindly repeat that for Fab VH5-51_IGHD5-18*01>3_IGHJ4*01 G100K/G104T G24T/S28R/G35V & V3-4_IGLJ1*01 V91L/S96P S52G (Fab, V domains shown, Fab made in E. coli: VH on CH1 with His6 and Flag tags (Plasmid A), VL on lambda CL (Plasmid E); also called H: KT TRV & L: LP S52G) VH: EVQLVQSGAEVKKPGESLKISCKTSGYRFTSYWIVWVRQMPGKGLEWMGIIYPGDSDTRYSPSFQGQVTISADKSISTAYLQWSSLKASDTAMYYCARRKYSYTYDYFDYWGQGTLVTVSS VL: QTVVTQEPSFSVSPGGTVTLTCGLSSGSVSTSYYPSWYQQTPGQAPRTLIYGTNTRSSGVPDRFSGSILGNKAALTITGAQADDESDYYCLLYMGPGISYVFGTGTKVTVL ?
0.9
